Target: B2 bradykinin receptor (Homo sapiens, UniProt P30411)
Sequence (P30411 whole entry): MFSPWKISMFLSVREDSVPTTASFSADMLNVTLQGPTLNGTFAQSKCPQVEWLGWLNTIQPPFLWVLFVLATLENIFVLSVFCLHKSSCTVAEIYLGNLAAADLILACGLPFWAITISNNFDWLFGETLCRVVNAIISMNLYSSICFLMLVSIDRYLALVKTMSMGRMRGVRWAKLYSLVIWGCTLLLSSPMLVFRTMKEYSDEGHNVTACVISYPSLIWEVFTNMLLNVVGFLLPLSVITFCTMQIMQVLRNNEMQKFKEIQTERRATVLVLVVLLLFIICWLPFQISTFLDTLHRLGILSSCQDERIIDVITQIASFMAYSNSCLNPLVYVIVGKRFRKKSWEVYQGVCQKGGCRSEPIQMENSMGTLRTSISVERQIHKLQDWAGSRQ
Assay: Concentration required to inhibit specific binding of [3H]BK at 1.2 nM to A-431 cells (human epidermoid carcinoma) which express Bradykinin receptor B2 by 50%.
QUANTITY KIND: IC50 (nM)

I: CCCC(=O)NCC(=O)N(C)c1ccc(Cl)c(COc2cccn3c(Br)c(C)nc23)c1Cl
II: Cc1ccccc1NC(=O)NCC(=O)N(C)c1ccc(Cl)c(COc2cccn3c(Br)c(C)nc23)c1Cl
III: COCCNC(=O)c1cccc(NC(=O)NCC(=O)N(C)c2ccc(Cl)c(COc3cccn4c(Br)c(C)nc34)c2Cl)c1.Cl
IV: CCCCCC(=O)NCC(=O)N(C)c1ccc(Cl)c(COc2cccn3c(Br)c(C)nc23)c1Cl
Query string: Give the order of the entries above, sorted from least to greatest IC50. Hello, could you send the labels back in the order asked? Thank you.
Result string: III, II, IV, I

====

Biological target: B2 bradykinin receptor (Homo sapiens)
Experiment: Concentration required to inhibit specific binding of [3H]BK at 1.2 nM to A-431 cells (human epidermoid carcinoma) which express Bradykinin receptor B2 by 50%.
QUANTITY KIND: IC50 (nM)

P: Cc1nc2c(OCc3c(Cl)ccc(N(C)C(=O)CNC(=O)Nc4cccc([N+](=O)[O-])c4)c3Cl)cccn2c1Br
Q: Cc1nc2c(OCc3c(Cl)ccc(N(C)C(=O)CNC(=O)/C=C/c4ccc(N5CCCC5=O)cc4)c3Cl)cccn2c1Br.Cl
R: Cc1nc2c(OCc3c(Cl)ccc(N(C)C(=O)CNC(=O)Nc4cccc(Cl)c4)c3Cl)cccn2c1Br.Cl
S: Cc1nc2c(OCc3c(Cl)ccc(N(C)C(=O)CNC(=O)CCCc4ccccc4)c3Cl)cccn2c1Br
Query string: Rank the listed compounds by IC50, largest first. Give your ranking as a list of the labels in the requested order.
Result string: R, S, P, Q
(R: 1900 nM, S: 480 nM, P: 180 nM, Q: 4.1 nM)

====

Biological target: B2 bradykinin receptor (Homo sapiens)
Assay: Concentration required to inhibit specific binding of [3H]BK at 1.2 nM to A-431 cells (human epidermoid carcinoma) which express Bradykinin receptor B2 by 50%.
QUANTITY KIND: IC50 (nM)

These recorded examples may help you get a feel for the data.
{"ENTRY SMILES": "Cc1nc2c(OCc3c(Cl)ccc(N(C)C(=O)CNC(=O)/C=C/c4ccc(C(=O)N(C)C)cc4)c3Cl)cccn2c1Br.Cl", "IC50 [nM]": 1.4}
{"ENTRY SMILES": "CCOC(=O)c1cccc(NC(=O)NCC(=O)N(C)c2ccc(Cl)c(COc3cccn4c(Br)c(C)nc34)c2Cl)c1", "IC50 [nM]": 150}

a: Cc1cccc(NC(=O)NCC(=O)N(C)c2ccc(Cl)c(COc3cccn4c(Br)c(C)nc34)c2Cl)c1
b: Cc1nc2c(OCc3c(Cl)ccc(N(C)C(=O)CNC(=O)/C=C/c4ccc(C(=O)N(C)C)nc4)c3Cl)cccn2c1Br.Cl.Cl
Query string: I'm curious, which of these has a smaller IC50 number: a or b ? Record your answer as the label of the chosen record.
Result string: b

P: Cc1nc2c(OCc3c(Cl)ccc(N(C)C(=O)CNC(=O)Nc4ccccc4)c3Cl)cccn2c1Br
Q: CC(=O)Nc1ccc(/C=C/C(=O)NCC(=O)N(C)c2ccc(Cl)c(COc3cccn4c(Br)c(C)nc34)c2Cl)cn1.Cl.Cl
R: CC(=O)NCC(=O)N(C)c1ccc(Cl)c(COc2cccn3c(Br)c(C)nc23)c1Cl.Cl
Query string: Order the 3 compounds from highest to lowest IC50. Write the labels, ordered according to the request.
Result string: R, P, Q
